# system: T1, IFF05588
# T1 chain: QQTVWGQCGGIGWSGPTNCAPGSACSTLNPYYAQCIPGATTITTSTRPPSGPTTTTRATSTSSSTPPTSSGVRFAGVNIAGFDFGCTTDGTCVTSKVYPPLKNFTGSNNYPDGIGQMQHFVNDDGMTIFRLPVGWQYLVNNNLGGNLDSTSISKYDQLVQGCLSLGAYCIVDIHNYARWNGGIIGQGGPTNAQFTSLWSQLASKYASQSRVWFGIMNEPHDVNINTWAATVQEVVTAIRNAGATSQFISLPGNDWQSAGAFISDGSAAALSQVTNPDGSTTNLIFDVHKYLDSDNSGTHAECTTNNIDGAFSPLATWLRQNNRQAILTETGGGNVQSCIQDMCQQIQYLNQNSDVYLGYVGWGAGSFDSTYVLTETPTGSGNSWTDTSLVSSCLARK
readout.kind: Relative late peak area (reverse phase chromatography, 24 h)
// no unit string in output, number only

Q: # return recorded Relative late peak area (reverse phase chromatography, 24 h) for input IFF21340 (protein) NLNKPVITPNFPGNGLASLGPGLMNNLAPTHSTWDDWGAGWIPADCKSMVQGAGFSPNDIIPFNIHYDDCAQSWTFCRHKNSPLSEIQILDIFGRLPVRMRQFVRHLVFVPGNKSAGSNGDNVLMVGDVDVTVFAHEIGHSLDSHAFDPSYGVPFSTGNVWVSNYNLDSAVPDPYAQSSQQENFAQQTVVSIYDKVVPGGIGTIQPNWQAIFHQYATLEGYIGNVIIPGGTCTHRLTDSAPVTMSGSKKSRRALGPKPKVSLSPKVKEIEAIPMESSITMTSFDEHGKPNGTYVVHL
Result: 0.33

Q: # return recorded Relative late peak area (reverse phase chromatography, 24 h) for input IFF21375 (protein) QTLDKPALTPNLDYLLQGNTDNLQPAASHYGKWEDGWIPADCKSIAEDQQLNPTDFEVYDVFYGDCGDAWSFCRHKSSSDSIDTIIDTFGRVPVRMRSWVRHVLTIPGDNWAFNSNGNIAFSGTTSQNLDVALHETGHSLDLLGAYGETLSSSQTWLDNYNQDPNVPDEYARSNQVENVAQNTVVGIYDKVVPGGFGSVQPNWGNIFHQYSTLQSMAKDTIIPGGTCDRHLANSETVSMASTQSNATRMARIRRVKPSHSFRQTYDNIVEGFTPFSTKDTCHFSWA
Result: 0.63
